# ASSAY REMARKS: Clearance in rat
# Format: ADME, organism-based
# EXPERIMENTAL CONTEXT: in vivo
Give measured clearance for each item. Keep answers brief.
Write the answer as a number in mL/min/kg, unit excluded.

Need clearance of COc1cc(C(=O)NC[C@H](NS(=O)(=O)c2ccccc2)C(=O)O)ccc1N1CCC(NC2=NCCCN2)CC1 , thanks. 47

Requested field: clearance. Item: CC(C)(CC1Cc2ccccc2C1)NC[C@@H](O)COc1cc(CCC(=O)O)ccc1C#N [SB-423562] 89

---

# ASSAY REMARKS: Clearance in po dosed dog
# Assay type: ADME, organism-based, Canis lupus familiaris
# EXPERIMENTAL CONTEXT: in vivo
ASSAY ENDPOINT: CL/F (mL/min/kg)
Value expressed in mL/min/kg; do not type the unit.

I am curious: what CL/F value has been reported for COc1ccc([C@H](CC(=O)O)N2CCN(CCCc3ccc4c(n3)NCCC4)C2=O)cn1 ? 6.4

---

# TARGET UNDER TEST: Integrin alpha-V/beta-3 (Homo sapiens, UniProt P05106+P06756)
# Sequence (P05106 27-788 limits assumed): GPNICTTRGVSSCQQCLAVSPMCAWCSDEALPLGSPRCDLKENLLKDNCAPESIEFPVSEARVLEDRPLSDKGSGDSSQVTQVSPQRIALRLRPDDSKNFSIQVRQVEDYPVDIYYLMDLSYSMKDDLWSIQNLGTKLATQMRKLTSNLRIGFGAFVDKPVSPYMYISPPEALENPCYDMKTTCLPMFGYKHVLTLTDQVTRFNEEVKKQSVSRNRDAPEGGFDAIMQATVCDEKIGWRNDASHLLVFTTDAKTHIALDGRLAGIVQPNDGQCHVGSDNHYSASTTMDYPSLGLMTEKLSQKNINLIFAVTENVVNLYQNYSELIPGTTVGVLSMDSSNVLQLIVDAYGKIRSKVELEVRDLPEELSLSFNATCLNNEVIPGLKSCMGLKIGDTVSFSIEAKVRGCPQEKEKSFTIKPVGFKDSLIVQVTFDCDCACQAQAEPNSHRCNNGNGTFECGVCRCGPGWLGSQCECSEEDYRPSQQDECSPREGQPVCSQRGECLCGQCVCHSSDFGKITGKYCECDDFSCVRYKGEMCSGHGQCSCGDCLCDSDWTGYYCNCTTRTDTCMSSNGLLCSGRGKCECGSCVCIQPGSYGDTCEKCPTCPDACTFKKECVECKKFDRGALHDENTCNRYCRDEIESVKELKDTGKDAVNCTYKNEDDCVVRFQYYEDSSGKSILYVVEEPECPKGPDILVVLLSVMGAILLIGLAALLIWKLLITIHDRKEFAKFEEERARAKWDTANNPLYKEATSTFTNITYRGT
# Sequence (P06756 31-889 limits assumed): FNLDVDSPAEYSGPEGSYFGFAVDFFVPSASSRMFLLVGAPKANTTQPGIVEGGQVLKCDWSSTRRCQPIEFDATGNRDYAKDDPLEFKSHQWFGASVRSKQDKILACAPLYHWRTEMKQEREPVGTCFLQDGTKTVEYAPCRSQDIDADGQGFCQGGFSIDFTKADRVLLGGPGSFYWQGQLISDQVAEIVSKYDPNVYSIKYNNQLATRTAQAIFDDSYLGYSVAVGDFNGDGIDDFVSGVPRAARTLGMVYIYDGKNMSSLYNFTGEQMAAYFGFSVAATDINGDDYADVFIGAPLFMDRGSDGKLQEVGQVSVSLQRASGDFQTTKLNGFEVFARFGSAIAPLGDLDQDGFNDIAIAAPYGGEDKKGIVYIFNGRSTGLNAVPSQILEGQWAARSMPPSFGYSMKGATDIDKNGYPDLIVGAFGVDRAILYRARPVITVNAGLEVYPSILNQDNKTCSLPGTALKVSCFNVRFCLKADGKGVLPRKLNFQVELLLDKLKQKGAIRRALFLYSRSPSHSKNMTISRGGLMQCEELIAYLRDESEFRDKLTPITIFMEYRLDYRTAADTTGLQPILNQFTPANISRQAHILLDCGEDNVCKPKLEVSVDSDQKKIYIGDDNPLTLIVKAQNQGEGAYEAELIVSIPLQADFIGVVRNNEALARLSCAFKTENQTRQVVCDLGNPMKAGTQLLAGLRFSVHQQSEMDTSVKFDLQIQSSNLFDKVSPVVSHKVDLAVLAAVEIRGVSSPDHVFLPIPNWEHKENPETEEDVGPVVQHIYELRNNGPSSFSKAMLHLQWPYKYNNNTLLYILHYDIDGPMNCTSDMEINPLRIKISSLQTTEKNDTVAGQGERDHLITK
# Sequence (P06756 891-1048 limits assumed): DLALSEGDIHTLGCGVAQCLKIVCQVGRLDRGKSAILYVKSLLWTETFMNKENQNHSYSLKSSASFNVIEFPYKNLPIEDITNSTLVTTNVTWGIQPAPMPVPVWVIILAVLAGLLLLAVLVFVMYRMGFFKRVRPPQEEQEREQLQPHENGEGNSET
# ASSAY REMARKS: Inhibition of integrin alpha-V-beta-3-mediated adhesion of human cells M21 cells
# Format: cell-based
ASSAY ENDPOINT: IC50 (µM)
Kindly answer with a numeric value in µM, unit omitted.

Which IC50 reading was recorded for the compound N=C(N)N=C(N)Nc1cc(Cl)cc(Cl)c1 ? 0.0335

---

# ASSAY REMARKS: Cmax in rat at 50 mg/kg, po
# Type: ADME, organism-based
# Set-up: dose 50 mg/kg, route oral
# EXPERIMENTAL CONTEXT: in vivo
ASSAY ENDPOINT: Cmax (ng/mL)
I only need the number, in ng/mL, no unit after it.

# get_value(readout='Cmax', item= CC[C@@H](CNc1ccc(OCC(=O)O)cc1)NC(=O)C1(Nc2cccc(-c3ccccc3)c2)CCCCC1 ) 9200

---

# ASSAY REMARKS: Half life in po dosed rat
# Format: ADME, organism-based
# EXPERIMENTAL CONTEXT: in vivo
ASSAY ENDPOINT: half-life (h)
Use h as the unit, but write only the number.

Could you share which half-life value was measured for COc1ccc([C@H](CC(=O)O)N2CCN(CCCc3ccc4c(n3)NCCC4)C2=O)cn1 ? 3

Look at this compound and give its reported half-life. O=C(O)c1ccc(CCCN2C(=O)CC[C@@H]2CC[C@@H](O)Cc2cccc(C(F)(F)F)c2)s1 0.2

---

# ASSAY REMARKS: Oral bioavailability in rat
# Format: ADME, organism-based
# EXPERIMENTAL CONTEXT: in vivo
ASSAY ENDPOINT: bioavailability
Answer format: value, then unit.

Item under review: Cc1ccc(CC(C)(C)NC[C@@H](O)CO[C@H](C)c2ccccc2[C@@H]2C[C@@H]3C[C@H]2[C@H]2[C@H](C(=O)O)[C@@H]32)cc1F . Reported bioavailability? 60%

---

# ASSAY REMARKS: Selectivity for cathepsin K over cathepsin S
ASSAY ENDPOINT: Selectivity ratio
// no unit, no text: just the number

Which measured Selectivity ratio value corresponds to CS(=O)(=O)c1ccc(-c2cn(CC(F)(F)F)nc2[C@@H]2CCC(Cl)(Cl)C[C@H]2C(=O)NC2(C#N)CC2)cc1 ? 4300

Reported Selectivity ratio for CN1CCN(c2nc(-c3ccc(C(=O)NC4(C(=O)N[C@@H]5C(=O)N[C@@H]5Oc5ccccc5)CCCCC4)cc3)cs2)CC1 : what is it? 3540

What value of Selectivity ratio has been recorded for this entry: CC(C)CNc1nc(C#N)nc(N2CCOCC2)c1N 31

Tell me the measured Selectivity ratio of CC[C@@H](CNc1ccc(OCC(=O)O)cc1)NC(=O)C1(Nc2cccc(-c3ccccc3)c2)CCCCC1 , please. 2080

# input compound: CC(C)(F)C[C@H](N[C@@H](c1ccc(-c2ccc(S(C)(=O)=O)cc2)cc1)C(F)(F)F)C(=O)NC1(C#N)CC1 ; wanted: its Selectivity ratio 300

---

# Organism: Homo sapiens
# ASSAY REMARKS: Plasma protein binding in human
# EXPERIMENTAL CONTEXT: read-out: PPB (converted)
ASSAY ENDPOINT: fraction unbound
Lab note: jot the number down without any unit.

Which value of fraction unbound has been reported for COc1ccc([C@@H](CCC[C@H](O)CCc2ccc3c(n2)NCCC3)CC(=O)O)cn1 in the records? 0.07

Give its fraction unbound value. Item: COc1ccc([C@H](CC(=O)O)N2CCN(CCCc3ccc4c(n3)NCCC4)C2=O)cn1 0.12

---

# TARGET UNDER TEST: G-protein coupled receptor 55 (Homo sapiens)
# Sequence (Q9Y2T6 whole entry): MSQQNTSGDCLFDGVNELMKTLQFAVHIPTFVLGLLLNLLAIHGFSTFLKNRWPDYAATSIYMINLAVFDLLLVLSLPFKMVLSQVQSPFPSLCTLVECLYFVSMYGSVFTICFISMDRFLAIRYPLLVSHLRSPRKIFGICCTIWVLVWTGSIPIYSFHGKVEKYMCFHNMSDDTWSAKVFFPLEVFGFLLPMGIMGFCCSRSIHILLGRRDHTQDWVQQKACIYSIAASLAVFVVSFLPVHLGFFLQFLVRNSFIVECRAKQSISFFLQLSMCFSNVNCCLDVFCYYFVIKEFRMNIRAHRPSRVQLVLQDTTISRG
# ASSAY REMARKS: Binding affinity to GPR55
ASSAY ENDPOINT: pEC50
# reply with the number alone; pEC50 is -log10 of concentration in mol/L

Return reported pEC50; argument: C=C(C)[C@@H]1CCC(C)=C[C@H]1c1c(O)cc(CCCCC)cc1O 6.35

---

# TARGET UNDER TEST: Extracellular calcium-sensing receptor (Bos taurus)
# Sequence (P35384 whole entry): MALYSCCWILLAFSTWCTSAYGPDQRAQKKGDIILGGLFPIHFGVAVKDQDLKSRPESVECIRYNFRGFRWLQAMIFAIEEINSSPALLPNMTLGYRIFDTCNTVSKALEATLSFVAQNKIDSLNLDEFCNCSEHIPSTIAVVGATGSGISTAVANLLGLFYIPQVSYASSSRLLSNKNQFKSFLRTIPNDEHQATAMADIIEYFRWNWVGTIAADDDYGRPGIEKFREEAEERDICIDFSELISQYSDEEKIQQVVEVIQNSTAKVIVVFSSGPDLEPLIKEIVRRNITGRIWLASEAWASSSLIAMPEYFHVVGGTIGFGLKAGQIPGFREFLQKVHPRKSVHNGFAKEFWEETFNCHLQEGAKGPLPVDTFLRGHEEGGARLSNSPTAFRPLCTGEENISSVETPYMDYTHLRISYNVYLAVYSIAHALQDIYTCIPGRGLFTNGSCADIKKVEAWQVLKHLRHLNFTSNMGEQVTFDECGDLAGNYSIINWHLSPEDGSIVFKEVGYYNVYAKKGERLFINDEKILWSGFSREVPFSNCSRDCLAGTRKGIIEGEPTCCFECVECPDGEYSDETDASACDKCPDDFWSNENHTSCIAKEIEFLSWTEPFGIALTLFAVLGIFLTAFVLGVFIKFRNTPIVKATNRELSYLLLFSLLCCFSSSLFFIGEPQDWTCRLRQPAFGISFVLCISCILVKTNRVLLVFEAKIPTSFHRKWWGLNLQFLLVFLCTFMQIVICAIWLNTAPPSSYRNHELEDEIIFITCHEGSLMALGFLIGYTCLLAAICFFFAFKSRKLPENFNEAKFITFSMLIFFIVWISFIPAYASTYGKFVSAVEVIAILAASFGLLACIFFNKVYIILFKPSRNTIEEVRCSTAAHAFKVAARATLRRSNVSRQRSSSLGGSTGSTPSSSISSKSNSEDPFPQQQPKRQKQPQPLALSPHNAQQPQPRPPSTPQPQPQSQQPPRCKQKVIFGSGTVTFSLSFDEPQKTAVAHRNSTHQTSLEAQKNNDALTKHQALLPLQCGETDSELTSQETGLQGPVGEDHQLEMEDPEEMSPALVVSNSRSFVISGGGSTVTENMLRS
# ASSAY REMARKS: Inhibition of CaSR in bovine parathyroid cells assessed as increase in PTH level
ASSAY ENDPOINT: pEC50
A value of pEC50 is the negative decimal logarithm of a concentration given in moles per litre.

Tell me the measured pEC50 of CC(C)(Cc1ccc2ccccc2c1)NC[C@@H](O)COc1cccc(Cl)c1C#N , please. 7.39

---

ASSAY ENDPOINT: EC50 (µM)
Your answer should be a plain number; it is taken to be in µM.

Record lookup: for Parathyroid hormone/parathyroid hormone-related peptide receptor (Homo sapiens), what EC50 belongs to CCCCN1C(=O)C(=C(N)N)C(=O)N(CCCC)C1=O ? 3.2

---

Can you tell me Selectivity ratio for the items I'm about to list?
# ASSAY REMARKS: Selectivity for cathepsin K over cathepsin B

Would you mind telling me what Selectivity ratio value was observed for CC[C@@H](CNc1ccc(OCC(=O)O)cc1)NC(=O)C1(Nc2cccc(-c3ccccc3)c2)CCCCC1 ? > 4170

Name the recorded Selectivity ratio for CC(C)(F)C[C@H](N[C@@H](c1ccc(-c2ccc(S(C)(=O)=O)cc2)cc1)C(F)(F)F)C(=O)NC1(C#N)CC1 . 5170

Request the reported Selectivity ratio associated with CN1CCN(c2nc(-c3ccc(C(=O)NC4(C(=O)N[C@@H]5C(=O)N[C@@H]5Oc5ccccc5)CCCCC4)cc3)cs2)CC1 71

Dear colleague, I am looking for the recorded Selectivity ratio of the following molecule: CS(=O)(=O)c1ccc(-c2cn(CC(F)(F)F)nc2[C@@H]2CCC(Cl)(Cl)C[C@H]2C(=O)NC2(C#N)CC2)cc1 > 16000

What Selectivity ratio value was documented for this molecule, CC(C)CNc1nc(C#N)nc(N2CCOCC2)c1N ? > 556

Need Selectivity ratio, item CC(C)C[C@H](NC(=O)c1ccc(C(C)(C)C)cc1)C(=O)N1CC[C@@H]2[C@H]1C(=O)CN2C(=O)c1ccccc1 > 990

---

# ASSAY REMARKS: Clearance in dog
# Format: ADME, organism-based, Canis lupus familiaris
# EXPERIMENTAL CONTEXT: in vivo
ASSAY ENDPOINT: clearance (mL/min/kg)
Just the number please, in mL/min/kg, no unit attached.

Would you kindly share the measured clearance for COc1ccc([C@@H](CCC[C@H](O)CCc2ccc3c(n2)NCCC3)CC(=O)O)cn1 ? 2.5

---

# ASSAY REMARKS: Clearance in po dosed rat
# Assay type: ADME, organism-based
# EXPERIMENTAL CONTEXT: in vivo
Exercise: for every item that follows, state its recorded CL/F.
Only the number, expressed in mL/min/kg, is required.

CL/F lookup needed for COc1ccc([C@H](CC(=O)O)N2CCN(CCCc3ccc4c(n3)NCCC4)C2=O)cn1 , thanks. 47

Requested field: CL/F. Item: O=C(O)c1ccc(CCCN2C(=O)CC[C@@H]2CC[C@@H](O)Cc2cccc(C(F)(F)F)c2)s1 70

---

ASSAY ENDPOINT: IC50

Notebook entry, Cathepsin K (Homo sapiens) assay: IC50 of CC(C)(C)Cn1c(CN2C(=O)CC3(CCNCC3)C2=O)cc2cnc(C#N)nc21 = ? < 1 nM

---

# TARGET UNDER TEST: Cathepsin K (Homo sapiens, UniProt P43235)
# ASSAY REMARKS: Inhibition of humanized rabbit cathepsin K
ASSAY ENDPOINT: pIC50
The value called pIC50 is obtained by taking minus log10 of the concentration in mol/L.

If you can, please state the reported pIC50 value of CS(=O)(=O)c1ccc(-c2cn(CC(F)(F)F)nc2[C@@H]2CCC(Cl)(Cl)C[C@H]2C(=O)NC2(C#N)CC2)cc1 . 9.21

---

Field: IC50. Provide a value for each of the compounds that follow.
Answer format: numeric, nM implied, no suffix.

So what IC50 did CC(C)(CC1Cc2ccccc2C1)NC[C@@H](O)COc1cc(CCC(=O)O)ccc1C#N get with Extracellular calcium-sensing receptor (Homo sapiens, UniProt P41180)? 73

Value wanted: IC50 (Extracellular calcium-sensing receptor (Homo sapiens, UniProt P41180)) of entry CCc1cc2c(=O)n(CCc3ccccc3F)c(-c3ccccc3O)nc2cc1C 97

Query for Extracellular calcium-sensing receptor (Homo sapiens, UniProt P41180): what IC50 does the record show for CCOC(=O)CCc1ccc(C#N)c(OC[C@H](O)CNC(C)(C)CC2Cc3ccccc3C2)c1 ? 520

Given the entry Cc1ccc(CC(C)(C)NC[C@@H](O)CO[C@H](C)c2ccccc2[C@@H]2C[C@@H]3C[C@H]2[C@H]2[C@H](C(=O)O)[C@@H]32)cc1F , what IC50 was observed with Extracellular calcium-sensing receptor (Homo sapiens, UniProt P41180)? 25

All values here come from ChEMBL document CHEMBL1155461.
